Origin of values: patent US20260069656A1

- Test system: kinase activity of SEQID-00338 (AMP + ATP→2ADP)
- protocol notes: Kinase activity of SEQID-00338 and mutants, ADP-Glo Max Assay
- Assay type: biochemical
- study conditions: 7 μg/mL, 30 minute reaction at 30° C.; N=2
observation type: AVG proportion activity, percentage AMP + ATP→2ADP converted relative to wild-type (%)
The response must be a number in % with no trailing unit.

• D91F: single amino acid mutant of SEQID-00338 at magnesium ion binding site position 91 (protein, listed as Saccharomyces cerevisiae, strain ATCC 204508 / S288c) MSSSESIRMVLIGPPGAGKGTQAPNLQERFHAAHLATGDMLRSQIAKGTQLGLEAKKIMDQGGLVSDDIMVNMIKDELTNNPACKNGFILFGFPRTIPQAEKLDQMLKEQGTPLEKAIELKVDDELLVARITGRLIHPASGRSYHKIFNPPKEDMKDDVTGEALVQRSDDNADALKKRLAAYHAQTEPIVDFYKKTGIWAGVDASQPPATVWADILNKLGKD = 0.9

Query molecule follows.
Data request: What does the record list as AVG proportion activity, percentage AMP + ATP→2ADP converted relative to wild-type for R134Y: single amino acid mutant of SEQID-00338 at substrate binding position 134 (protein, listed as Saccharomyces cerevisiae, strain ATCC 204508 / S288c) MSSSESIRMVLIGPPGAGKGTQAPNLQERFHAAHLATGDMLRSQIAKGTQLGLEAKKIMDQGGLVSDDIMVNMIKDELTNNPACKNGFILDGFPRTIPQAEKLDQMLKEQGTPLEKAIELKVDDELLVARITGYLIHPASGRSYHKIFNPPKEDMKDDVTGEALVQRSDDNADALKKRLAAYHAQTEPIVDFYKKTGIWAGVDASQPPATVWADILNKLGKD ?
Data returned: 0.2
